# study_system: T1, Human CD3eg linker (human)
# T1 construct: Single chain: epsilon and gamma subunits of human CD3 joined by a 29-mer linker, Flag-tag at the C-terminus; also called recombinant human CD3
# T1 chain: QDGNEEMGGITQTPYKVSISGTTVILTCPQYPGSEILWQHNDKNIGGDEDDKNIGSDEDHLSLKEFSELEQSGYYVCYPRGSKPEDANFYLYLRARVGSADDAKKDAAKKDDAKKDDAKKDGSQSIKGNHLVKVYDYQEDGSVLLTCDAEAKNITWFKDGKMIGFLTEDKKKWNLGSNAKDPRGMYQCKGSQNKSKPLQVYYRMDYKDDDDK
# protocol_description: Biacore SPR, vs template H183/L072

binder | fold change of affinity (fold)
H183/L072 VH S100aM (antibody, name in Kabat numbering, V domains shown) VH: QVQLVESGGGLVQPGRSLRLSCAASGFTFSNAWMHWVRQAPGKGLEWVAQIKDKGNAYAAYYAPSVKGRFTISRDDSKNSIYLQMNSLKTEDTAVYYCHYVHYASAMTVLPAFGVDAWGQGTTVTVSS VL: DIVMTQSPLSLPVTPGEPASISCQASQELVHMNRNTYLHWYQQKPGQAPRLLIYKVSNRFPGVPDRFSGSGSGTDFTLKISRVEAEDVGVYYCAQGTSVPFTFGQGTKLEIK | 0.8
H183/L072 VH I51H (antibody, name in Kabat numbering, V domains shown) VH: QVQLVESGGGLVQPGRSLRLSCAASGFTFSNAWMHWVRQAPGKGLEWVAQHKDKGNAYAAYYAPSVKGRFTISRDDSKNSIYLQMNSLKTEDTAVYYCHYVHYASASTVLPAFGVDAWGQGTTVTVSS VL: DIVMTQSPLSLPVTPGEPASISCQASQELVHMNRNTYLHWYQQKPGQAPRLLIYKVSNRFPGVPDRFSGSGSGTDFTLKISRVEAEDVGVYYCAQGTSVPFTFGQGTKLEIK | 0
H183/L072 VH I51F (antibody, name in Kabat numbering, V domains shown) VH: QVQLVESGGGLVQPGRSLRLSCAASGFTFSNAWMHWVRQAPGKGLEWVAQFKDKGNAYAAYYAPSVKGRFTISRDDSKNSIYLQMNSLKTEDTAVYYCHYVHYASASTVLPAFGVDAWGQGTTVTVSS VL: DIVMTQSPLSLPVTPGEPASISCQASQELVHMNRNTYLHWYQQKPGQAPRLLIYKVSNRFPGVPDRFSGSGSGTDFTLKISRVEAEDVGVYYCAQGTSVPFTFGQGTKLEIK | 0
H183/L072 VH F27Q (antibody, name in Kabat numbering, V domains shown) VH: QVQLVESGGGLVQPGRSLRLSCAASGQTFSNAWMHWVRQAPGKGLEWVAQIKDKGNAYAAYYAPSVKGRFTISRDDSKNSIYLQMNSLKTEDTAVYYCHYVHYASASTVLPAFGVDAWGQGTTVTVSS VL: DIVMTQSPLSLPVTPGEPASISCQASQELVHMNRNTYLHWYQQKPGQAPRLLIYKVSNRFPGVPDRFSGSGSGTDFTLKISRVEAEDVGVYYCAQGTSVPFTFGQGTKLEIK | 0
H183/L072 VH Y94P (antibody, name in Kabat numbering, V domains shown) VH: QVQLVESGGGLVQPGRSLRLSCAASGFTFSNAWMHWVRQAPGKGLEWVAQIKDKGNAYAAYYAPSVKGRFTISRDDSKNSIYLQMNSLKTEDTAVYYCHPVHYASASTVLPAFGVDAWGQGTTVTVSS VL: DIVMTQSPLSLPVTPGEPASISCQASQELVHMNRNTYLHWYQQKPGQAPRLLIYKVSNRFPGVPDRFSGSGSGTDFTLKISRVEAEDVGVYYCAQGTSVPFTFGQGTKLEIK | 0
H183/L072 VH F27E (antibody, name in Kabat numbering, V domains shown) VH: QVQLVESGGGLVQPGRSLRLSCAASGETFSNAWMHWVRQAPGKGLEWVAQIKDKGNAYAAYYAPSVKGRFTISRDDSKNSIYLQMNSLKTEDTAVYYCHYVHYASASTVLPAFGVDAWGQGTTVTVSS VL: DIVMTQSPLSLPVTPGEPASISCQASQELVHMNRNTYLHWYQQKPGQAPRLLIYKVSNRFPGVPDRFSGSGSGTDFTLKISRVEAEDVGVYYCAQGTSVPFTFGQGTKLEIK | 0
H183/L072 VH N53G (antibody, name in Kabat numbering, V domains shown) VH: QVQLVESGGGLVQPGRSLRLSCAASGFTFSNAWMHWVRQAPGKGLEWVAQIKDKGGAYAAYYAPSVKGRFTISRDDSKNSIYLQMNSLKTEDTAVYYCHYVHYASASTVLPAFGVDAWGQGTTVTVSS VL: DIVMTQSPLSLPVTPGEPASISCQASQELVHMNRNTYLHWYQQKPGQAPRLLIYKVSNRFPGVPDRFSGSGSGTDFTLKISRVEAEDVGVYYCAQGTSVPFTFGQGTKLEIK | 0.4
H183/L072 VH V100iP (antibody, name in Kabat numbering, V domains shown) VH: QVQLVESGGGLVQPGRSLRLSCAASGFTFSNAWMHWVRQAPGKGLEWVAQIKDKGNAYAAYYAPSVKGRFTISRDDSKNSIYLQMNSLKTEDTAVYYCHYVHYASASTVLPAFGPDAWGQGTTVTVSS VL: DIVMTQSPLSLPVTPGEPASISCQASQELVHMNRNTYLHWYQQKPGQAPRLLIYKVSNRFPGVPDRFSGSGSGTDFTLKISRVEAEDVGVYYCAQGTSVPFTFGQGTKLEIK | 1.2
H183/L072 VH Y58Q (antibody, name in Kabat numbering, V domains shown) VH: QVQLVESGGGLVQPGRSLRLSCAASGFTFSNAWMHWVRQAPGKGLEWVAQIKDKGNAYAAQYAPSVKGRFTISRDDSKNSIYLQMNSLKTEDTAVYYCHYVHYASASTVLPAFGVDAWGQGTTVTVSS VL: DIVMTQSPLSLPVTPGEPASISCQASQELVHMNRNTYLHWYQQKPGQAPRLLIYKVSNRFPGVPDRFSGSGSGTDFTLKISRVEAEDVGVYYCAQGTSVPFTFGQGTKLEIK | 0.3
H183/L072 VH P61L (antibody, name in Kabat numbering, V domains shown) VH: QVQLVESGGGLVQPGRSLRLSCAASGFTFSNAWMHWVRQAPGKGLEWVAQIKDKGNAYAAYYALSVKGRFTISRDDSKNSIYLQMNSLKTEDTAVYYCHYVHYASASTVLPAFGVDAWGQGTTVTVSS VL: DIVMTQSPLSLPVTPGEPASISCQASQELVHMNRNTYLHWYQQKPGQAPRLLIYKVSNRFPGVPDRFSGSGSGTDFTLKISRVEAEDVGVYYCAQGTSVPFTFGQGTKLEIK | 1.8
